# Species on record: Rattus norvegicus
# assay comment: Open TG-GATES - Regimen: Single
# Format: toxicity, organism-based, Sprague-Dawley
# Parameters: regimen Single, gender Male, age 6 weeks
# run conditions: in vivo, po, 1000 mg/kg, 3 h, tissue Blood, route gavage, dose level High
Listing of entries alongside the reported MCHC.
assay metric: MCHC (%)

compound="COC(=O)C1=C(C)NC(C)=C(C(=O)OC)C1c1ccccc1[N+](=O)[O-] [NIFEDIPINE]" data_value=32.6
compound="CN/C(=N/CCSCc1nc[nH]c1C)NC#N [CIMETIDINE]" data_value=33.5
compound="Cc1nnc2n1-c1ccc(Cl)cc1C(c1ccccc1Cl)=NC2 [TRIAZOLAM]" data_value=33.2
compound="CNC(=C[N+](=O)[O-])NCCSCc1ccc(CN(C)C)o1 [RANITIDINE]" data_value=34.7
compound="O=C(OC[C@H]1O[C@@H](OC(=O)c2cc(O)c(O)c(OC(=O)c3cc(O)c(O)c(O)c3)c2)[C@H](OC(=O)c2cc(O)c(O)c(OC(=O)c3cc(O)c(O)c(O)c3)c2)[C@@H](OC(=O)c2cc(O)c(O)c(OC(=O)c3cc(O)c(O)c(O)c3)c2)[C@@H]1OC(=O)c1cc(O)c(O)c(OC(=O)c2cc(O)c(O)c(O)c2)c1)c1cc(O)c(O)c(OC(=O)c2cc(O)c(O)c(O)c2)c1 [TANNIC ACID]" data_value=33.3

---

# Species: Rattus norvegicus
# assay comment: Open TG-GATES - Regimen: Daily Repeat
# Type: toxicity, organism-based, Sprague-Dawley
# Design: regimen Daily Repeat, gender Male, age 6 weeks
# run conditions: in vivo, po, 100 mg/kg, […], tissue Plasma, route gavage, dose level Low, time 7 day
assay metric: ALT (IU/L)

mol_smiles=CN/C(=N/CCSCc1nc[nH]c1C)NC#N assay_metric=ALT data_value=34.8
mol_smiles=Cc1nnc2n1-c1ccc(Cl)cc1C(c1ccccc1Cl)=NC2 assay_metric=ALT data_value=48.8
mol_smiles=COC(=O)C1=C(C)NC(C)=C(C(=O)OC)C1c1ccccc1[N+](=O)[O-] assay_metric=ALT data_value=47
mol_smiles=O=C(OC[C@H]1O[C@@H](OC(=O)c2cc(O)c(O)c(OC(=O)c3cc(O)c(O)c(O)c3)c2)[C@H](OC(=O)c2cc(O)c(O)c(OC(=O)c3cc(O)c(O)c(O)c3)c2)[C@@H](OC(=O)c2cc(O)c(O)c(OC(=O)c3cc(O)c(O)c(O)c3)c2)[C@@H]1OC(=O)c1cc(O)c(O)c(OC(=O)c2cc(O)c(O)c(O)c2)c1)c1cc(O)c(O)c(OC(=O)c2cc(O)c(O)c(O)c2)c1 assay_metric=ALT data_value=32.2
mol_smiles=CNC(=C[N+](=O)[O-])NCCSCc1ccc(CN(C)C)o1 assay_metric=ALT data_value=32.4

---

# Species on record: Rattus norvegicus
# assay comment: Open TG-GATES - Regimen: Daily Repeat
# Type: toxicity, organism-based, Sprague-Dawley
# Design: regimen Daily Repeat, gender Male, age 6 weeks
# run conditions: in vivo, po, 0 mg/kg, 72 h, tissue Blood, route gavage, dose level Control, time 3 day
assay metric: RBC (x10_4/ul)

molecule="Brc1ccccc1 [BROMOBENZENE]" result_units=x10_4/ul data_value=613.6
molecule="CCOc1ccc(NC(C)=O)cc1 [PHENACETIN]" result_units=x10_4/ul data_value=628.2
molecule="O=C(OC[C@H]1O[C@@H](OC(=O)c2cc(O)c(O)c(OC(=O)c3cc(O)c(O)c(O)c3)c2)[C@H](OC(=O)c2cc(O)c(O)c(OC(=O)c3cc(O)c(O)c(O)c3)c2)[C@@H](OC(=O)c2cc(O)c(O)c(OC(=O)c3cc(O)c(O)c(O)c3)c2)[C@@H]1OC(=O)c1cc(O)c(O)c(OC(=O)c2cc(O)c(O)c(O)c2)c1)c1cc(O)c(O)c(OC(=O)c2cc(O)c(O)c(O)c2)c1 [TANNIC ACID]" result_units=x10_4/ul data_value=603.8
molecule="CNC(=C[N+](=O)[O-])NCCSCc1ccc(CN(C)C)o1 [RANITIDINE]" result_units=x10_4/ul data_value=629.4
molecule="COC(=O)C1=C(C)NC(C)=C(C(=O)OC)C1c1ccccc1[N+](=O)[O-] [NIFEDIPINE]" result_units=x10_4/ul data_value=643.8
molecule="Cc1nnc2n1-c1ccc(Cl)cc1C(c1ccccc1Cl)=NC2 [TRIAZOLAM]" result_units=x10_4/ul data_value=651.8
molecule="CN(C)CCC(c1ccc(Cl)cc1)c1ccccn1 (stereo not drawn) [CHLORPHENIRAMINE]" result_units=x10_4/ul data_value=650.8
molecule="Nc1c2c(nc3ccccc13)CCCC2 [TACRINE]" result_units=x10_4/ul data_value=641.8
molecule="CC(C)NNC(=O)c1ccncc1 [IPRONIAZID]" result_units=x10_4/ul data_value=622.8
molecule="CN1C(=O)CCS(=O)(=O)C1c1ccc(Cl)cc1 (stereo not drawn) [CHLORMEZANONE]" result_units=x10_4/ul data_value=608.2
molecule="NC1=NC(=O)C(c2ccccc2)O1 (stereo not drawn) [PEMOLINE]" result_units=x10_4/ul data_value=617.8
molecule="CCCc1cc(=O)[nH]c(=S)[nH]1 [PROPYLTHIOURACIL]" result_units=x10_4/ul data_value=622
molecule="CN/C(=N/CCSCc1nc[nH]c1C)NC#N [CIMETIDINE]" result_units=x10_4/ul data_value=642.2
